All values here come from patent US20230158141A1.

# measurementTarget: T1, IL-10R1-Fc (UniProt Q13651 22-235, limits assumed)
# T1 sequence (looked up): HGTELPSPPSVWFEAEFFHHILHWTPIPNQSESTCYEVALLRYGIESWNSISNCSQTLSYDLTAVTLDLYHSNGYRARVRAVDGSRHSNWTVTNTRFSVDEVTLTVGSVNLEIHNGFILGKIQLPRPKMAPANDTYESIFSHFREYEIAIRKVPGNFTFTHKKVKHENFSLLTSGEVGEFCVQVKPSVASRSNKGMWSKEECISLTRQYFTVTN
# measurementNotes: ELISA, IL-10R1-Fc coated
The entries below are paired with their reported Binding recovery (>60%).

binder	Binding recovery (>60%)
IL-10 Leu26Cys-R4-6 (ligand, human, UniProt P22301 19-178, looked up, R4-6 on Cys 26, mature) SPGQGTQSENSCTHFPGNLPNMLRDCRDAFSRVKTFFQMKDQLDNLLLKESLLEDFKGYLGCQALSEMIQFYLEEVMPQAENQDPDIKAHVNSLGENLKTLRLRLRRCHRFLPCENKSKAVEQVKNAFNKLQEKGIYKAMSEFDIFINYIEAYMTMKIRN	93.4
IL-10 Ser118Cys-R4-5 (ligand, human, UniProt P22301 19-178, looked up, R4-5 on Cys 118, mature) SPGQGTQSENSCTHFPGNLPNMLRDLRDAFSRVKTFFQMKDQLDNLLLKESLLEDFKGYLGCQALSEMIQFYLEEVMPQAENQDPDIKAHVNSLGENLKTLRLRLRRCHRFLPCENKCKAVEQVKNAFNKLQEKGIYKAMSEFDIFINYIEAYMTMKIRN	100
IL-10 Leu23Cys-R4-6 (ligand, human, UniProt P22301 19-178, looked up, R4-6 on Cys 23, mature) SPGQGTQSENSCTHFPGNLPNMCRDLRDAFSRVKTFFQMKDQLDNLLLKESLLEDFKGYLGCQALSEMIQFYLEEVMPQAENQDPDIKAHVNSLGENLKTLRLRLRRCHRFLPCENKSKAVEQVKNAFNKLQEKGIYKAMSEFDIFINYIEAYMTMKIRN	101
